Test Details: Half life in C3H mouse at 2 mg/kg, iv by LC-MS analysis
Type: ADME, organism-based
Conditions: in vivo
Measured half-life, listed per entry for reference.
Please report the result as a number followed by the unit.

NC(=S)n1nc(-c2ccc([N+](=O)[O-])cc2)c(Cc2cccc(Cl)c2)c1O ... 1.58 h

Query string: Need half-life of `NC(=S)n1nc(-c2ccc([N+](=O)[O-])cc2)c(/N=N/c2cccc(Cl)c2)c1O` , thanks.
Result string: 2.13 h

====

Test Details: Cmax in C3H mouse at 10 mg/kg, po administered through suspension of 0.5% w/v sodium-carboxymethyl cellulose with 0.1% v/v Tween80 by LC-MS analysis
Assay type: ADME, organism-based
Design: dose 10 mg/kg, route oral
Conditions: in vivo
Measured Parameter: Cmax (ng/mL)
Just the number in ng/mL, nothing appended.

NC(=S)n1nc(-c2ccc([N+](=O)[O-])cc2)c(Cc2cccc(Cl)c2)c1O ... 3400

Alright, here's another compound for you.
Query string: Report Cmax for `NC(=S)n1nc(-c2ccc([N+](=O)[O-])cc2)c(CCc2cccc(Cl)c2)c1O` please.
Result string: 5610

====

Test Details: Binding affinity to recombinant HIV1 Nef by SPR assay
Set-up: species or system Human immunodeficiency virus 1
Measured Parameter: Kd (nM)
Lab book: enter the figure in nM, no units written.

// below: answered compounds
NC(=S)n1nc(-c2ccc([N+](=O)[O-])cc2)c(CCc2cccc(Cl)c2)c1O ... 159
NC(=S)n1nc(-c2ccc([N+](=O)[O-])cc2)c(/N=N/c2cccc(Cl)c2)c1O ... 81.9

We next turn to a different compound, shown below.
Query string: Could you share which Kd value was measured for `NC(=S)n1nc(-c2ccc([N+](=O)[O-])cc2)c(Cc2cccc(Cl)c2)c1O` ?
Result string: 150

====

# maps each entry to its AUC(0-t)
Test Details: AUClast in C3H mouse at 2 mg/kg, iv by LC-MS analysis
Format: ADME, organism-based
Set-up: dose 2 mg/kg, route intravenous, time 0 - last
Conditions: in vivo
Give the figure together with its unit, number first.

Recorded results for 2 molecules are shown here.
NC(=S)n1nc(-c2ccc([N+](=O)[O-])cc2)c(Cc2cccc(Cl)c2)c1O ... 2960 ng·h/mL
NC(=S)n1nc(-c2ccc([N+](=O)[O-])cc2)c(CCc2cccc(Cl)c2)c1O ... 2130 ng·h/mL

Query string: Quick one: AUC(0-t) for `NC(=S)n1nc(-c2ccc([N+](=O)[O-])cc2)c(/N=N/c2cccc(Cl)c2)c1O` ?
Result string: 9780 ng·h/mL

====

Test Details: Cytotoxicity against human TZM-bl cells by Cell Titer Blue assay
Assay type: cell-based
Let's look at some compounds and their measured CC50.

For orientation, consider the following solved cases.
NC(=S)n1nc(-c2ccc([N+](=O)[O-])cc2)c(Cc2cccc(Cl)c2)c1O ... > 10 µM
O=[N+]([O-])c1ccc(-c2n[nH]c(O)c2Cc2cccc(Cl)c2)cc1 ... > 10 µM
NC(=S)n1nc(-c2ccc([N+](=O)[O-])cc2)c(CCc2cccc(Cl)c2)c1O ... > 10 µM

Query string: What CC50 value was documented for this compound, `NC(=S)n1nc(-c2ccc([N+](=O)[O-])cc2)c(/N=N/c2cccc(Cl)c2)c1O` ?
Result string: 10 µM

Query string: Please look up its CC50: `O=[N+]([O-])c1ccc(-c2n[nH]c(O)c2CCc2cccc(Cl)c2)cc1`
Result string: > 10 µM

====

Test Details: Clearance in C3H mouse at 2 mg/kg, iv by LC-MS analysis
Type: ADME, organism-based
Conditions: in vivo
Measured Parameter: clearance (mL/min/kg)
// return numeric value only (unit: mL/min/kg, not printed)

Query string: Please look up its clearance: `NC(=S)n1nc(-c2ccc([N+](=O)[O-])cc2)c(CCc2cccc(Cl)c2)c1O`
Result string: 13.5

Query string: Field request: clearance | item: `NC(=S)n1nc(-c2ccc([N+](=O)[O-])cc2)c(Cc2cccc(Cl)c2)c1O`
Result string: 8.56

Query string: Request the reported clearance associated with `NC(=S)n1nc(-c2ccc([N+](=O)[O-])cc2)c(/N=N/c2cccc(Cl)c2)c1O`
Result string: 3.41

====

Test Details: Tmax in C3H mouse at 10 mg/kg, po administered through suspension of 0.5% w/v sodium-carboxymethyl cellulose with 0.1% v/v Tween80 by LC-MS analysis
Type: ADME, organism-based
Conditions: in vivo
Measured Parameter: Tmax (min)
# output: bare number, implied unit min

NC(=S)n1nc(-c2ccc([N+](=O)[O-])cc2)c(CCc2cccc(Cl)c2)c1O ... 30

Next compound, please.
Query string: Given the entry `NC(=S)n1nc(-c2ccc([N+](=O)[O-])cc2)c(Cc2cccc(Cl)c2)c1O` , report its measured Tmax.
Result string: 30

====

Test Details: AUC(infinity) in C3H mouse at 2 mg/kg, iv by LC-MS analysis
Type: ADME, organism-based
Parameters: dose 2 mg/kg, time infinity, route intravenous
Conditions: in vivo
Recorded AUC(0-inf) for the following compounds
Express it in ng·h/mL; write the number only.

Sample records with AUC(0-inf):
NC(=S)n1nc(-c2ccc([N+](=O)[O-])cc2)c(/N=N/c2cccc(Cl)c2)c1O ... 9790
NC(=S)n1nc(-c2ccc([N+](=O)[O-])cc2)c(Cc2cccc(Cl)c2)c1O ... 3000

Now let's try a different one.
Query string: Returns the measured AUC(0-inf) for the input compound. Input: `NC(=S)n1nc(-c2ccc([N+](=O)[O-])cc2)c(CCc2cccc(Cl)c2)c1O`
Result string: 2150

====

Test Details: AUC(infinity) in C3H mouse at 10 mg/kg, po administered through solution of 5% N-methyl -2-pyrrolidone and 5% solutol in saline by LC-MS analysis
Assay type: ADME, organism-based
Design: dose 10 mg/kg, route oral, time infinity
Conditions: in vivo
Measured Parameter: AUC(0-inf) (ng·h/mL)
Only the number, expressed in ng·h/mL, is required.

NC(=S)n1nc(-c2ccc([N+](=O)[O-])cc2)c(CCc2cccc(Cl)c2)c1O ... 6430
NC(=S)n1nc(-c2ccc([N+](=O)[O-])cc2)c(/N=N/c2cccc(Cl)c2)c1O ... 1020

Now consider a different compound.
Query string: Give its AUC(0-inf) value. Item: `NC(=S)n1nc(-c2ccc([N+](=O)[O-])cc2)c(Cc2cccc(Cl)c2)c1O`
Result string: 18800

====

We begin with a simple list: items and their reported bioavailability.
Test Details: Oral bioavailability in C3H mouse at 10 mg/kg administered through solution of 5% N-methyl -2-pyrrolidone and 5% solutol in saline by LC-MS analysis
Assay type: ADME, organism-based
Conditions: in vivo
Return type: number; implicit unit %.

NC(=S)n1nc(-c2ccc([N+](=O)[O-])cc2)c(/N=N/c2cccc(Cl)c2)c1O ... 2
NC(=S)n1nc(-c2ccc([N+](=O)[O-])cc2)c(CCc2cccc(Cl)c2)c1O ... 53

Here's the next entry for you.
Query string: Consider the compound `NC(=S)n1nc(-c2ccc([N+](=O)[O-])cc2)c(Cc2cccc(Cl)c2)c1O` and give its measured bioavailability.
Result string: 100

====

Test Details: AUC(infinity) in C3H mouse at 10 mg/kg, po administered through suspension of 0.5% w/v sodium-carboxymethyl cellulose with 0.1% v/v Tween80 by LC-MS analysis
Type: ADME, organism-based
Design: dose 10 mg/kg, route oral, time infinity
Conditions: in vivo
Known AUC(0-inf) of a selection of compounds
Your answer is read as ng·h/mL, so omit the unit and give the number.

NC(=S)n1nc(-c2ccc([N+](=O)[O-])cc2)c(Cc2cccc(Cl)c2)c1O ... 11500

Query string: Sample `NC(=S)n1nc(-c2ccc([N+](=O)[O-])cc2)c(CCc2cccc(Cl)c2)c1O` — what was its AUC(0-inf)?
Result string: 9480

====

Test Details: Cmax in C3H mouse at 2 mg/kg, iv by LC-MS analysis
Assay type: ADME, organism-based
Set-up: dose 2 mg/kg, route intravenous
Conditions: in vivo
List of Cmax values.
Number only, in ng/mL; omit the unit.

NC(=S)n1nc(-c2ccc([N+](=O)[O-])cc2)c(Cc2cccc(Cl)c2)c1O ... 2800
NC(=S)n1nc(-c2ccc([N+](=O)[O-])cc2)c(/N=N/c2cccc(Cl)c2)c1O ... 3960

Query string: // query Cmax value for entry `NC(=S)n1nc(-c2ccc([N+](=O)[O-])cc2)c(CCc2cccc(Cl)c2)c1O`
Result string: 4420

====

// reported Cmax for each item listed
Test Details: Cmax in C3H mouse at 10 mg/kg, po administered through solution of 5% N-methyl -2-pyrrolidone and 5% solutol in saline by LC-MS analysis
Type: ADME, organism-based
Design: dose 10 mg/kg, route oral
Conditions: in vivo
Give just the number in ng/mL; leave the unit off.

Worked examples follow.
NC(=S)n1nc(-c2ccc([N+](=O)[O-])cc2)c(CCc2cccc(Cl)c2)c1O ... 2370
NC(=S)n1nc(-c2ccc([N+](=O)[O-])cc2)c(/N=N/c2cccc(Cl)c2)c1O ... 418

Query string: What value of Cmax has been recorded for this entry: `NC(=S)n1nc(-c2ccc([N+](=O)[O-])cc2)c(Cc2cccc(Cl)c2)c1O`
Result string: 5810
